Consider the following compounds and their measured melting point readings.

Record excerpt, results attached:
* O=C(O)CC(Br)C(=O)c1cccs1 (centres undefined) | 125 to 127 °C
* Cc1nc2[nH]cnc2cc1Br | 197 to 199 °C
* Cc1ccc(-c2nn(Cc3ccccc3)cc2/C=C/C(=O)O)cc1 | 107 to 109 °C

Here is the next item to consider.
Task item: Consider the compound CC1(c2cc3ccccc3o2)NC(=O)NC1=O (centres undefined) and give its measured melting point.
Reply: 203 to 205 °C

###

Parameter melting point: see the listing below.

Sample records with melting point:
- Cc1ccoc1-c1nnc(N)s1: 153 to 155 °C
- Sc1ncnc2ccsc12: 271 to 273 °C

Task item: // query melting point value for entry O=c1c2ccccc2c(-c2nnc(S)o2)nn1Cc1ccccc1
Reply: 238 to 242 °C

###

The entries below are paired with their reported melting point.

* Cc1nc(Cl)cc(-n2ccnc2)n1 | 114 to 116 °C
* Cc1nn(-c2ccc(C(=O)O)cc2)c(C)c1Br | 229 to 231 °C
* CN(C)S(=O)(=O)c1cc(N)ccc1Cl | 125 to 129 °C

Task item: Consider the molecule COc1cccc2c1C(=O)CC2 and give its measured melting point.
Reply: 99 to 102 °C

Task item: Then what about the molecule Cc1nnc(S)n1C1CCCC(C)C1 (stereo not drawn) ?
Reply: 129 to 131 °C

Task item: Quick one: CCOC(=O)C(=O)CC(=O)c1ccc(Cl)cc1
Reply: 62 to 64 °C

Task item: Query O=C(O)c1ccc2c(c1)[nH]c(=O)n2C1CCCC1 next
Reply: 315 to 317 °C

Task item: What about this molecule? COCCNS(=O)(=O)c1ccc(C)c(C(=O)O)c1
Reply: 137 to 139 °C

Task item: Could you do the same for CC(N)c1cccc(NC(=O)c2ccccc2)c1 (stereo not drawn) , please?
Reply: 115 to 117 °C

Task item: Nc1cccc2[nH]ncc12 ?
Reply: 145 to 147 °C

Task item: Item: CC(C)n1[nH]c(-c2ccccc2)cc1=N
Reply: 83 to 85 °C

###

MEASURED PARAMETER: melting point

Solved entries (count: 5):
• Nc1cccc(S(=O)(=O)NCc2ccco2)c1 = 83 to 85 °C
• Cc1ccc(NS(=O)(=O)c2ccc(C(=O)O)cc2)cc1 = 285 to 287 °C
• Cn1c(S)nnc1C1CCS(=O)(=O)C1 (stereo not given) = 151 to 153 °C
• Cc1nc(C)c(S(N)(=O)=O)s1 = 142 to 144 °C
• Cc1ccc(S(=O)(=O)N2CCN(C(=O)C(C)Cl)CC2)cc1 (stereo not given) = 153 to 155 °C

Task item: Sample O=C(Cc1ccccc1)C(Br)c1ccccc1 (stereo not given) — what was its melting point?
Reply: 47 to 49 °C

Task item: Would you kindly repeat that for Nc1ccc(OC(F)F)c2ncccc12 ?
Reply: 119 to 121 °C

Task item: Param item: CC(=O)CCCCCCC(=O)O
Reply: 38 to 40 °C

Task item: Param item: NC(=O)CCn1ccnc1
Reply: 137 to 139 °C

Task item: Moving on to the next compound: Nc1ccccc1NC(=O)c1ccc2ccccc2n1
Reply: 151 to 153 °C

Task item: Quick one: CC1Oc2ccc(C(=O)CBr)cc2NC1=O (stereo not given)
Reply: 147 to 149 °C

Task item: Query CCc1cc(Cl)n2c(nc3ccccc32)c1C#N next
Reply: 175 to 177 °C

Task item: What do you have for Cc1ccc(Oc2ccc(NC(=O)CCl)cc2)cc1 ?
Reply: 155 to 158 °C

###

Items are presented alongside their recorded melting point.

Observe how each entry below is paired with its result.
• CNC(=O)c1c(C)cccc1N = 109 to 111 °C
• CCCNS(=O)(=O)c1ccc(/C=C/C(=O)O)cc1 = 235 to 237 °C
• CC(C)(C)OC(=O)N1C(=O)NC(C)(C)C1=O = 152 to 154 °C

Task item: Entry COC(=O)c1sc(-c2cccc(Cl)c2)cc1N has what melting point?
Reply: 100 to 102 °C

Task item: And Nc1ccc(Oc2ccc(F)cc2)c2ccncc12 ?
Reply: 149 to 151 °C

Task item: Now this one: NC(=NO)c1ccc(N2CCCCC2)cc1
Reply: 169 to 171 °C

Task item: Again, but for Nc1ccc(CC2NC(=O)NC2=O)cc1 (stereo unspecified)
Reply: 152 to 154 °C

Task item: Next: CCS(=O)(=O)CC(=O)O
Reply: 57 to 59 °C

Task item: Now the same for CNC(=O)c1cc2ccccc2[nH]1
Reply: 221 to 223 °C

Task item: Also check COC(=O)N1CCCNC(=O)C1
Reply: 134 to 136 °C

Task item: Check NNC(=O)C1CCS(=O)(=O)C1 (stereo unspecified) too.
Reply: 71 to 73 °C

Task item: Then what about the molecule CC(C)NS(=O)(=O)c1cc(C(=O)O)ccc1F ?
Reply: 168 to 170 °C

Task item: Please answer likewise for c1cc(OCC2CO2)c2cc[nH]c2c1 (stereo unspecified)
Reply: 52 to 54 °C

Task item: Now the molecule C=CC(=O)Nc1cc(OC)c(Cl)cc1OC
Reply: 124 to 126 °C

Task item: Similarly, NNC(=O)c1ccc(S(=O)(=O)N2CCCC2)cc1 ?
Reply: 199 to 201 °C

Task item: Now try Oc1ccnc2cc(F)c(F)cc12 .
Reply: 298 to 300 °C

Task item: Item: Oc1ccc(-c2nc3ccccc3[nH]2)cn1
Reply: 238 to 242 °C

Task item: Repeat for the following molecule: Cc1cc(N)c(C(N)=O)cc1F
Reply: 192 to 194 °C

###

List of melting point values.

For orientation, consider the following solved cases.
• CCc1ccc(C(=O)N2CCC(C(=O)O)CC2)o1 = 112 to 114 °C
• NC(=O)C1CCC(O)CC1 (stereo unspecified) = 204 to 206 °C

Continue with the molecule presented below.
Task item: // query melting point value for entry CC1CCN(Cc2nc3sc4c(c3c(=O)[nH]2)CCC4)CC1
Reply: 256 to 258 °C

###

MEASURED PARAMETER: melting point

• COC(=O)C(=O)CC(=O)c1ccncc1 = 93 to 95 °C

Task item: Would you kindly share the measured melting point for O=C(O)CC1=NN(c2ncc(C(F)(F)F)cc2Cl)C(=O)C1 ?
Reply: 173 to 175 °C

Task item: Entry O=C(O)C1(O)CCCCC1 please
Reply: 102 to 104 °C

Task item: Input COc1cc(C=O)cc(Br)c1OCC(=O)N(C)C
Reply: 62 to 64 °C

Task item: Consider next the molecule O=C(Nc1ccccc1)c1cccc(O)c1 in the same way.
Reply: 151 to 153 °C

Task item: Check NS(=O)(=O)c1cccc(NC(=O)Oc2ccccc2)c1 too.
Reply: 193 to 195 °C

###

Recorded measurements of melting point, one per entry

• CC(=O)N1CCN(S(=O)(=O)c2ccc(C(=O)O)cc2)CC1 = 277 to 279 °C
• O=[N+]([O-])c1ccc2c(c1)S(=O)(=O)C=C2 = 179 to 181 °C
• CC(C)COc1ccc(C(=O)O)cn1 = 105 to 107 °C

Task item: Could you share which melting point value was measured for O=C(CCl)N1CCCC1 ?
Reply: 56 to 58 °C

Task item: Another molecule to look at: CC(C)(O)c1ccc(Br)cc1
Reply: 42 to 44 °C

Task item: Now consider Cc1ccc(-c2nnc(-c3ccc(C(=O)O)cc3)o2)cc1 .
Reply: 250 to 252 °C

Task item: Then what about the molecule CS(=O)(=O)c1ccc(CN)cc1 ?
Reply: 272 to 274 °C

Task item: Repeat with O=S(=O)(Cl)c1ccccc1-c1ccno1
Reply: 74 to 76 °C

###

Reported melting point values for a set of compounds

- NCC(O)COc1ccc2c(c1)CCC(=O)N2 (stereo unspecified): 103 to 105 °C
- N#Cc1ccc(CSc2ccccc2C(=O)O)cc1: 208 to 210 °C

Task item: May I ask what melting point has been recorded for NC(=O)c1cncc(C(=O)O)c1 ?
Reply: 269 to 271 °C

Task item: Same for COc1ccccc1CNc1ccc2[nH]c(=O)[nH]c2c1
Reply: 216 to 218 °C

Task item: For CC(C)c1nn(C)c2sc(C(=O)O)cc12 then?
Reply: 209 to 211 °C

###

# melting point listing for each entry below

Example compounds with recorded melting point:
- Sc1nnc(-c2ccc3ccccc3c2)o1: 226 to 228 °C
- Nc1nc(-c2cc(Cl)ccc2Cl)cs1: 161 to 165 °C
- O=C1CCS(=O)CC1: 62 to 64 °C
- N#CCc1c[nH]c2ccc(F)cc12: 54 to 56 °C
- O=c1[nH]c(-c2cccnc2)no1: 234 to 236 °C

Task item: State the recorded melting point for this entry: O=C(O)C(Sc1ccc(F)cc1F)c1ccccc1 (stereo unspecified)
Reply: 109 to 111 °C

Task item: Now give it for O=C(/C=C/c1ccccc1)c1ccc(Br)cc1 too.
Reply: 104 to 106 °C

Task item: What about this compound? Cn1c(=O)c2nc(SCC(=O)O)[nH]c2n(C)c1=O
Reply: 259 to 261 °C

Task item: What do we get for COc1cc(OC)c2c(-c3ccccc3)cc(S)nc2c1 ?
Reply: 230 to 232 °C

Task item: Entry to check: Cc1c(-c2ccccc2)sc(N)c1C(=O)N1CCOCC1
Reply: 187 to 189 °C

Task item: Cool, now O=C(O)CSCc1cscn1
Reply: 98 to 100 °C

Task item: Param item: CC(=O)c1cc2nc(C)ccc2o1
Reply: 119 to 121 °C

Task item: Same for CC(C)c1ccc(-c2nn(-c3ccccc3)cc2C(=O)O)cc1
Reply: 222 to 224 °C

Task item: One more compound: [N-]=[N+]=NS(=O)(=O)c1cccc2c1N=S=N2
Reply: 118 to 120 °C

Task item: // query: CCS(=O)c1ccccc1C(=O)O (stereo unspecified)
Reply: 128 to 130 °C

Task item: Please give the result for O=C(O)Cc1ccc(O)cc1Cl too.
Reply: 171 to 173 °C

Task item: Item: COc1ccc(C(=O)O)cc1S(=O)(=O)Cl
Reply: 153 to 155 °C

Task item: What do we get for O=C(O)CCC1NC(=O)N(c2ccc(Cl)c(Cl)c2)C1=O (stereo unspecified) ?
Reply: 173 to 175 °C

Task item: Thanks! And CC(C)(C)n1ncc(C(=O)O)c1C(F)(F)F ?
Reply: 110 to 112 °C

Reference for the values: a melting point compilation (Tetko et al.)
